# Assay Summary: NCI Yeast Anticancer Drug Screen. Data for the cln2 rad14 strain (AID 165);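 further: 0% = growth equal to vehicle treated cultures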
# Measurement Parameters: S. cerevisiae cln2 rad14 strain, at 50.0 µM
The panel holds about 79,000 compounds, 15% with a hit somewhere; the sample as a whole holds those more often. The source made the active and inactive calls. No stated cut-off is given here; in the data, active means growth inhibition above about 70%; inactive means the rest.
Could you please pick one outcome from this set? yes = active, no = inactive

Use these answered entries as a reference point.
[[record]]
compound = "N#CC1(C#N)C2CCCCC23OC(=N)C1(C#N)C(c1ccco1)O3 (configuration not stated)"
qualitative_label = "no"

[[record]]
compound = "CCC(=O)C(CC)c1cccc(OC)c1 (configuration not stated)"
qualitative_label = "no"


Pending compound:
Prompt: What outcome does the record of this test show for COC(=O)C(=O)C(C(=O)C(=O)Nc1ccccc1OC)c1nc2ccc([N+](=O)[O-])cc2[nH]c1=O (configuration not stated) ?
Response: no

----------
Catalogue of growth inhibition values
# Assay Summary: NCI Yeast Anticancer Drug Screen. Data for the rad50 strain (AID 155);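 further: 0% = growth of vehicle-only cultures of the same strain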
# Measurement Parameters: S. cerevisiae rad50 strain growth inhibition; at 50.0 µM; hits give high values
This is part of a sample that, as a whole, favours compounds with a hit. Of some 79,000 tested, about 15% had one in any assay.
Respond numerically; units are % and should not be typed.

[[record]]
compound = "O=C(/C=C(\\[O-])c1ccccc1)CCCCCCC(=O)/C=C(\\[O-])c1ccccc1.O=C(/C=C(\\[O-])c1ccccc1)CCCCCCC(=O)/C=C(\\[O-])c1ccccc1.O=C(/C=C(\\[O-])c1ccccc1)CCCCCCC(=O)/C=C(\\[O-])c1ccccc1.[Y+3].[Y+3]"
experimental_endpoint = "growth inhibition"
units_text = "%"
measured = 7.3

[[record]]
compound = "Cc1c(Cl)cccc1NCN1C(=O)c2ccccc2C1=O"
experimental_endpoint = "growth inhibition"
units_text = "%"
measured = 9.65

[[record]]
compound = "N#Cc1nc(C(F)(F)F)oc1N"
experimental_endpoint = "growth inhibition"
units_text = "%"
measured = -2.6

[[record]]
compound = "N#C/C(=C1C=C/C(=N/O)C(Br)=C/1)c1ccccc1"
experimental_endpoint = "growth inhibition"
units_text = "%"
measured = 50.1

[[record]]
compound = "CCOC(=O)CCc1ccc(O)c(O)c1"
experimental_endpoint = "growth inhibition"
units_text = "%"
measured = 4.9

[[record]]
compound = "Cc1ccc(NC2=N/C(=C/c3ccccc3)C(Cl)=N2)cc1"
experimental_endpoint = "growth inhibition"
units_text = "%"
measured = -10.1

[[record]]
compound = "OCC1OC(Nc2ccccc2O)C(O)C(O)C1O (configuration not stated)"
experimental_endpoint = "growth inhibition"
units_text = "%"
measured = 41.5

[[record]]
compound = "CC1C2(C)OC(=N)C(C#N)(C(c3cccc([N+](=O)[O-])c3)O2)C1(C#N)C#N (configuration not stated)"
experimental_endpoint = "growth inhibition"
units_text = "%"
measured = 8.15


Prompt: Value lookup for growth inhibition; key = `O=C(Cc1nc2ccccc2[nH]c1=O)N/N=C/c1ccc2c(c1)CCC2`
Response: -30.2

Prompt: Value lookup for growth inhibition; key = `O=C(O)COc1cc(-c2ccccc2F)nc2cc3c(cc12)OCO3`
Response: 34.1

Prompt: Value lookup for growth inhibition; key = COC(=O)C(/C(=N/NC(N)=O)C(=O)Nc1ccc(C)cc1)c1nc2ccc([N+](=O)[O-])cc2[nH]c1=O (configuration not stated)
Response: 22.1
